FYI, the data here is from PubChem BioAssay (EPA / NIEHS).

# Read-out: Protein phosphatase 2A (PPP2R4), PTPA (gene 5524)
# TEST SUMMARY: LTEA_HepaRG_PPP2R4: Life Technologies and Expression Analysis (LTEA) Assay for Protein phosphatase 2A (PPP2R4) using HepaRG (AID 2283522)
# TEST CONTEXT: mRNA level, 48 h; actives raise or lower the signal
Activity calls are given as the source filed them. How the source made its calls: active means hit-call score of the fitted dose curve at least 0.9, where 1 is the maximum; inactive means score below 0.9.
READOUT KIND: AC50

1. CCCCCCC(=O)O; inactive
2. CCc1nn(C2CCCCC2)c2cc(C3(C#N)CCC(C(=O)O)CC3)ccc12 (stereo not drawn); 11.4 µM (active)
3. CC(C)(C)c1cccc(C(C)(C)C)c1O; inactive
4. CN(C)C=O; inactive

Give me AC50 for each of these compounds, listed below.
1. CCCCC(CC)COC(=O)CCCCC(=O)OCC(CC)CCCC (stereo not drawn)
2. CC(=O)NC1(c2cccc(F)c2)CCN(CC[C@@]2(c3ccc(Cl)c(Cl)c3)CN(c3ccccc3)C(=O)CO2)CC1
3. O=c1c(-c2ccc(O)cc2)coc2cc(O)ccc12
4. Nc1cccc2c(N)cccc12

OUTPUT:
1: inactive; 2: inactive; 3: inactive; 4: inactive

---

# TEST SUMMARY: ATG_CMV_CIS: Attagene CIS-FACTORIAL HepG2 Assay for human CMV (Internal Marker) (AID 2282928);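 further: endpoint acts as a background internal control marker rather than a target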
# TEST CONTEXT: HepG2 CMV promoter reporter, transcription factor profiling; actives raise or lower the signal
Activity calls are given as the source filed them. Rule for the calls: active = hit-call score of the fitted dose curve at least 0.9, where 1 is the maximum; inactive = score below 0.9.
// classify into TRUE (active), FALSE (inactive)

INPUT: Short answer needed: outcome of this test for `Oc1cccc(O)c1` ?
OUTPUT: FALSE

INPUT: Per the assay record, what outcome was assigned to `c1ccc2c(c1)ccc1ccccc12` ?
OUTPUT: FALSE

INPUT: For this compound, state the assay outcome: `Oc1cc2ccccc2c2ccccc12`
OUTPUT: FALSE

INPUT: Which outcome was assigned to `C#C[C@]1(O)CC[C@H]2[C@@H]3CCC4=CC(=O)CC[C@@H]4[C@H]3CC[C@@]21C` in this test?
OUTPUT: FALSE

INPUT: Which outcome was assigned to `COc1ccc([N+](=O)[O-])cc1N` in this test?
OUTPUT: FALSE

INPUT: Any idea what this test logged for `FC(F)(I)C(F)(F)C(F)(F)C(F)(F)C(F)(F)C(F)(F)I` ?
OUTPUT: TRUE

INPUT: Hey, what did the test say about `O=[N+]([O-])c1ccc(O)cc1` ?
OUTPUT: FALSE

INPUT: # lookup: test call for `NC(=O)N(O)[C@@H]1C=C[C@H](Oc2cccc(Oc3ccc(F)cc3)c2)C1`
OUTPUT: TRUE

INPUT: Outcome logged for `O=C(O)c1ccccc1C(c1ccc(O)cc1)c1ccc(O)cc1` in this assay:
OUTPUT: FALSE

INPUT: Per the assay record, what outcome was assigned to `C[C@@H]1C[C@H]2[C@@H]3CCC4=CC(=O)C=C[C@]4(C)[C@@]3(F)[C@@H](O)C[C@]2(C)[C@@]1(O)C(=O)COP(=O)(O)O` ?
OUTPUT: FALSE

INPUT: I'd appreciate the recorded outcome for `CCCCCCCCCCCCCCCS(=O)(=O)Oc1ccccc1` from this test.
OUTPUT: FALSE

---

# Read-out: BCL2L11 (gene 10018)
# TEST SUMMARY: LTEA_HepaRG_BCL2L11: Life Technologies and Expression Analysis (LTEA) Assay for Bcl-2 (BCL2L11) gene using HepaRG (AID 2283473)
# TEST CONTEXT: mRNA level, 48 h; actives raise or lower the signal
The source made the active and inactive calls. The calls were made as follows: active = hit-call score of the fitted dose curve at least 0.9, where 1 is the maximum; inactive = score below 0.9.
Select the matching outcome among active, inactive

1) N#C[C@@H]1CC(F)(F)CN1C(=O)CNC1CC2CCC(C1)N2c1ncccn1 (stereo partly drawn); inactive

INPUT: State the result this test recorded for `CC(=O)NC1(c2cccc(F)c2)CCN(CC[C@@]2(c3ccc(Cl)c(Cl)c3)CN(c3ccccc3)C(=O)CO2)CC1` .
OUTPUT: active

INPUT: What call does the record list for `CC(C)(C)c1ccc(O)c(C(C)(C)C)c1` ?
OUTPUT: inactive

INPUT: Test call for this compound, please: `C#C[C@]1(O)CC[C@H]2[C@@H]3CCC4=CC(=O)CC[C@@H]4[C@H]3CC[C@@]21C`
OUTPUT: inactive

INPUT: Returns: the outcome recorded for `Oc1cccc(O)c1` in this assay.
OUTPUT: inactive

INPUT: # fetch the recorded call for CCc1ccc(CCOc2ccc(CC3SC(=O)NC3=O)cc2)nc1 (stereo not drawn) here
OUTPUT: inactive

INPUT: Query: recorded result category for COCC(C)OCC(C)O (stereo not drawn) in this test
OUTPUT: inactive

INPUT: Answer briefly: the call reported for COCC(C)O (stereo not drawn) in this assay.
OUTPUT: inactive
